Listing: Firefly F4, cmpd/DMSO (mean) of selected compounds
measured on: NR2F6 (Homo sapiens, UniProt P10588)
Construct: expressed in transfected cells; also transient transfection
protocol details: NR2F6 agonist screening, Firefly signal cmpd/DMSO
Format: cell-based
cond: 2 uM; F4
Reply: number alone, nothing else.

{"compound": "CC(C)CN[C@H]1CS(=O)(=O)C[C@@H]1S(=O)(=O)c1ccc(Cl)cc1", "result number": 1.5}
{"compound": "O=S1(=O)C[C@H](NC2CCCCCC2)[C@@H](S(=O)(=O)c2ccc(Cl)cc2)C1", "result number": 2.2}
{"compound": "O=S1(=O)C[C@H](N2CCCC2)[C@@H](S(=O)(=O)c2ccc(Cl)cc2)C1", "result number": 3.3}
{"compound": "CCCCN[C@H]1CS(=O)(=O)C[C@@H]1S(=O)(=O)c1ccc(Cl)cc1", "result number": 2.0}
{"compound": "C[C@@H]1C[C@H](C)CN([C@H]2CS(=O)(=O)C[C@@H]2S(=O)(=O)c2ccccc2)C1", "result number": 1.9}
{"compound": "COCCN[C@H]1CS(=O)(=O)C[C@@H]1S(=O)(=O)c1cccs1", "result number": 1.6}
{"compound": "CC(C)CCN[C@H]1CS(=O)(=O)C[C@@H]1S(=O)(=O)c1ccc(Cl)cc1", "result number": 1.9}
{"compound": "O=S1(=O)C[C@H](NCCc2cccs2)[C@@H](S(=O)(=O)c2ccc(Cl)cc2)C1", "result number": 1.7}
{"compound": "O=S1(=O)C[C@H](N2CCCC2)[C@@H](S(=O)(=O)c2cccs2)C1", "result number": 2.4}

Next compound, please.
What value of Firefly F4, cmpd/DMSO (mean) has been reported for the following compound? CCC(C)N[C@H]1CS(=O)(=O)C[C@@H]1S(=O)(=O)c1ccc(Cl)cc1 (stereo partly shown) 1.9

###

measured on: NR2F6 (Homo sapiens, UniProt P10588)
Construct: expressed in transfected cells; also transient transfection
Sequence (P10588 1-404): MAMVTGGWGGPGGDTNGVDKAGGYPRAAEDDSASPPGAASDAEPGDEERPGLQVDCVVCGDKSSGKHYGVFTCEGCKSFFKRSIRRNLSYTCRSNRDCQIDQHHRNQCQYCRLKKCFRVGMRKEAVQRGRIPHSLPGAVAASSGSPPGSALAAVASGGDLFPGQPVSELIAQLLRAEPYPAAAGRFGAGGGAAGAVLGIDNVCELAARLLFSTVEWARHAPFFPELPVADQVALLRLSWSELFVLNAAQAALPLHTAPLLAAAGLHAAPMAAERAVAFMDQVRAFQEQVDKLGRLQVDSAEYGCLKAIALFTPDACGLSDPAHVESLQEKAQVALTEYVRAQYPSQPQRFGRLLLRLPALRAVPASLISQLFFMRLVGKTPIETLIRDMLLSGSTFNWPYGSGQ
protocol details: NR2F6 agonist screening, Firefly signal cmpd/DMSO
Assay type: cell-based
cond: Table 14; 40 uM
Categorize each record by its Firefly F4, cmpd/DMSO (mean) using low = under 0.5, mid = from 0.5 up to 0.9, high = 0.9 and over

Would you please look over these solved cases?
{"compound": "CCOC(=O)c1cnc2c(C)cccc2c1NCCCN(C)C [Compound Z90]", "assigned class": "low"}
{"compound": "Cc1ccc(NC(=O)c2noc3c2CC(C)CC3)cc1C (centres unmarked) [Compound E53]", "assigned class": "high"}
{"compound": "COC(=O)c1cnc2c(C)cc(C)cc2c1NCCCN(C)C [Compound Z81]", "assigned class": "low"}
{"compound": "Cc1cc(C)c2ncc(C(N)=O)c(NCCCN(C)C)c2c1 [Compound Z83]", "assigned class": "mid"}
{"compound": "CCOC(=O)c1cnc2c(C)cc(C)cc2c1NCCCN(C)C [Compound Z54]", "assigned class": "mid"}

Sort Cc1ccn2cc(-c3ccc(F)cc3)cc2c1 [Compound 17] into one of the categories. high

Sort Cc1cc(C)n2nc(CNS(=O)(=O)c3ccc(Cl)cc3)nc2n1 [Compound Z91] into one of the categories. high

Sort Cc1cc(C)n2nc(CNS(=O)(=O)c3c(F)c(F)c(F)c(F)c3F)nc2n1 [Compound Z55] into one of the categories. high

Sort CCOC(=O)c1cnc2c(C)cc(C)cc2c1N1CCC(CO)CC1 [Compound Z79] into one of the categories. low

Sort O=C(Nc1cccc(O)c1)c1cc(-c2ccc(Cl)c(Cl)c2)on1 [Compound C5] into one of the categories. mid

Sort COC(=O)c1ccc2oc(=O)c(S(=O)(=O)c3ccccc3)cc2c1 [Compound C11] into one of the categories. low

Sort CCc1cc(C(=O)Nc2ccn(Cc3ccc(C)cc3)n2)no1 [Compound C6] into one of the categories. low

Sort CCc1cccc(Nc2cnn(-c3nc4ccccc4s3)c(=O)c2Cl)c1 [Compound C7] into one of the categories. low

Sort CCOC(=O)c1cnn2c(-c3ccc(Cl)cc3)ccnc12 [Compound C4] into one of the categories. mid

###

protocol details: PK in mice plasma
Type: in vivo
cond: mouse; Table 39; PO plasma, 3.18 mg/kg
value kind: Tmax (min)
A number alone suffices; assume min.

What value of Tmax has been reported for the following compound? COCCN[C@H]1CS(=O)(=O)C[C@@H]1S(=O)(=O)c1ccc(Cl)cc1 [Compound D136] 15

###

measured on: NR2F6 LBD (Homo sapiens)
Construct: expressed in transfected cells
protocol details: NR2F6 LBD transient transfection
Type: cell-based
cond: 40 uM; LBD
Listing: Firefly LBD, cmpd/DMSO (mean) of selected compounds
Reply: number alone, nothing else.

Worked examples follow.
{"compound": "COCCN[C@H]1CS(=O)(=O)C[C@@H]1S(=O)(=O)c1cccs1", "measured on": "NR2F6 LBD (Homo sapiens)", "Firefly LBD, cmpd/DMSO (mean)": 2.2}
{"compound": "O=S1(=O)C[C@H](NC2CCCCC2)[C@@H](S(=O)(=O)c2ccc(Cl)cc2)C1", "measured on": "NR2F6 LBD (Homo sapiens)", "Firefly LBD, cmpd/DMSO (mean)": 0.5}
{"compound": "O=S1(=O)C[C@H](NC2CCCCCC2)[C@@H](S(=O)(=O)c2ccc(Cl)cc2)C1", "measured on": "NR2F6 LBD (Homo sapiens)", "Firefly LBD, cmpd/DMSO (mean)": 0.7}
{"compound": "O=S1(=O)C[C@H](N2CCCCC2)[C@@H](S(=O)(=O)c2cccs2)C1", "measured on": "NR2F6 LBD (Homo sapiens)", "Firefly LBD, cmpd/DMSO (mean)": 0.7}
{"compound": "CC(C)CN[C@H]1CS(=O)(=O)C[C@@H]1S(=O)(=O)c1ccc(Cl)cc1", "measured on": "NR2F6 LBD (Homo sapiens)", "Firefly LBD, cmpd/DMSO (mean)": 0.8}
{"compound": "CCCN[C@H]1CS(=O)(=O)C[C@@H]1S(=O)(=O)c1ccc(Cl)cc1", "measured on": "NR2F6 LBD (Homo sapiens)", "Firefly LBD, cmpd/DMSO (mean)": 0.2}

What value of Firefly LBD, cmpd/DMSO (mean) has been reported for the following compound? CC(C)N[C@H]1CS(=O)(=O)C[C@@H]1S(=O)(=O)c1ccc(Cl)cc1 0.4

What value of Firefly LBD, cmpd/DMSO (mean) has been reported for the following compound? CC(C)CCN[C@H]1CS(=O)(=O)C[C@@H]1S(=O)(=O)c1ccc(Cl)cc1 0.7

What value of Firefly LBD, cmpd/DMSO (mean) has been reported for the following compound? O=S1(=O)C[C@H](N2CCCC2)[C@@H](S(=O)(=O)c2cccs2)C1 0.6

What value of Firefly LBD, cmpd/DMSO (mean) has been reported for the following compound? CCC(C)N[C@H]1CS(=O)(=O)C[C@@H]1S(=O)(=O)c1ccc(Cl)cc1 (stereo partly drawn) 0.7

What value of Firefly LBD, cmpd/DMSO (mean) has been reported for the following compound? CCCCN(C)[C@H]1CS(=O)(=O)C[C@@H]1S(=O)(=O)c1ccc(Cl)cc1 0.4

What value of Firefly LBD, cmpd/DMSO (mean) has been reported for the following compound? Cc1cc(S(=O)(=O)[C@H]2CS(=O)(=O)C[C@@H]2NCC2CCCO2)ccc1F (stereo partly drawn) 2.2

What value of Firefly LBD, cmpd/DMSO (mean) has been reported for the following compound? C[C@@H]1C[C@H](C)CN([C@H]2CS(=O)(=O)C[C@@H]2S(=O)(=O)c2ccccc2)C1 1.9

What value of Firefly LBD, cmpd/DMSO (mean) has been reported for the following compound? O=S1(=O)C[C@H](NC2CCCC2)[C@@H](S(=O)(=O)c2ccc(F)cc2)C1 2.2

What value of Firefly LBD, cmpd/DMSO (mean) has been reported for the following compound? O=S1(=O)C[C@H](NCc2ccncc2)[C@@H](S(=O)(=O)c2cccs2)C1 2.1

What value of Firefly LBD, cmpd/DMSO (mean) has been reported for the following compound? O=S1(=O)C[C@H](N2CCCCC2)[C@@H](S(=O)(=O)c2ccc(Cl)cc2)C1 0.4

What value of Firefly LBD, cmpd/DMSO (mean) has been reported for the following compound? C[C@@H]1C[C@H](C)CN([C@H]2CS(=O)(=O)C[C@@H]2S(=O)(=O)c2cccs2)C1 0.2

What value of Firefly LBD, cmpd/DMSO (mean) has been reported for the following compound? CC1CCN([C@H]2CS(=O)(=O)C[C@@H]2S(=O)(=O)c2cccs2)CC1 0.7

What value of Firefly LBD, cmpd/DMSO (mean) has been reported for the following compound? O=S1(=O)C[C@H](N2CCCC2)[C@@H](S(=O)(=O)c2ccc(Cl)cc2)C1 0.6

What value of Firefly LBD, cmpd/DMSO (mean) has been reported for the following compound? COc1ccc(CCN[C@H]2CS(=O)(=O)C[C@@H]2S(=O)(=O)c2ccc(Cl)cc2)cc1OC 2.4

What value of Firefly LBD, cmpd/DMSO (mean) has been reported for the following compound? CCCCN[C@H]1CS(=O)(=O)C[C@@H]1S(=O)(=O)c1ccc(Cl)cc1 0.5

What value of Firefly LBD, cmpd/DMSO (mean) has been reported for the following compound? CC(C)CCN[C@H]1CS(=O)(=O)C[C@@H]1S(=O)(=O)c1cccs1 0.8

What value of Firefly LBD, cmpd/DMSO (mean) has been reported for the following compound? CC(=O)Nc1ccc(S(=O)(=O)[C@H]2CS(=O)(=O)C[C@@H]2NC2CC2)cc1 1.1

What value of Firefly LBD, cmpd/DMSO (mean) has been reported for the following compound? COCCCN[C@H]1CS(=O)(=O)C[C@@H]1S(=O)(=O)c1ccc(Cl)cc1 2.1

What value of Firefly LBD, cmpd/DMSO (mean) has been reported for the following compound? CCC(C)N[C@H]1CS(=O)(=O)C[C@@H]1S(=O)(=O)c1ccc(C)cc1 (stereo partly drawn) 2.5

What value of Firefly LBD, cmpd/DMSO (mean) has been reported for the following compound? CC1CCN([C@H]2CS(=O)(=O)C[C@@H]2S(=O)(=O)c2ccc(Cl)cc2)CC1 0.4

What value of Firefly LBD, cmpd/DMSO (mean) has been reported for the following compound? O=S1(=O)C[C@H](NCCc2cccs2)[C@@H](S(=O)(=O)c2ccc(Cl)cc2)C1 2.6

What value of Firefly LBD, cmpd/DMSO (mean) has been reported for the following compound? CC(=O)N1CCN([C@H]2CS(=O)(=O)C[C@@H]2S(=O)(=O)c2ccc(F)c(C)c2)CC1 1.2

What value of Firefly LBD, cmpd/DMSO (mean) has been reported for the following compound? Cc1cccc(CN[C@H]2CS(=O)(=O)C[C@@H]2S(=O)(=O)c2ccc(Cl)cc2)c1 2.1

What value of Firefly LBD, cmpd/DMSO (mean) has been reported for the following compound? O=S1(=O)C[C@H](NC2CCCCC2)[C@@H](S(=O)(=O)c2ccccc2)C1 1.9
